- study system: Pantothenate synthetase (Mycobacterium tuberculosis (strain ATCC 25618 / H37Rv))
- test description: Coupled enzyme confirmation of inhibitors against recombinant Mtb PanC (AID 375);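 note: 0% = full reaction with vehicle and 100% = no enzyme background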
- assay context: coupled enzyme assay; at 10 µM, stronger effect = higher value
Activity calls are given as the source filed them. The rule behind the calls is not given here.
outcome measure: inhibition

A selection of reference data follows.
- compound: "CC1(C)CC(=O)CC(C2(O)C(=O)N(Cc3ccccc3)c3ccccc32)O1 (stereo unspecified)"
  study system: "Pantothenate synthetase (Mycobacterium tuberculosis (strain ATCC 25618 / H37Rv))"
  observed result: "0% (inactive)"
- compound: "O=c1oc2cc(O)ccc2c2oc3cc(O)ccc3c12"
  study system: "Pantothenate synthetase (Mycobacterium tuberculosis (strain ATCC 25618 / H37Rv))"
  observed result: "7% (inactive)"
- compound: "CCCCOCCCNC(=O)c1cccs1"
  study system: "Pantothenate synthetase (Mycobacterium tuberculosis (strain ATCC 25618 / H37Rv))"
  observed result: "0% (inactive)"
- compound: "CSc1ccccc1NC(=O)c1noc2c1CCC2"
  study system: "Pantothenate synthetase (Mycobacterium tuberculosis (strain ATCC 25618 / H37Rv))"
  observed result: "0% (inactive)"
- compound: "CCOC(=O)CC(=O)c1cc(OC)c(OC)c(OC)c1"
  study system: "Pantothenate synthetase (Mycobacterium tuberculosis (strain ATCC 25618 / H37Rv))"
  observed result: "0% (inactive)"

Here is another compound to look at.
(Q) Please state recorded inhibition (tested on Pantothenate synthetase (Mycobacterium tuberculosis (strain ATCC 25618 / H37Rv))) of Cc1ccc(C2c3c(oc4ccccc4c3=O)C(=O)N2c2nnc(C(C)C)s2)o1 (stereo unspecified)
(A) 7% (inactive)
